Collected EC50 values appear next to each entry.
Test system: Plasmodium falciparum
Assay: NOVARTIS: Inhibition of Plasmodium falciparum W2 (drug-resistant) proliferation in erythrocyte-based infection assay
Assay type: functional, organism-based
Settings: Plasmodium falciparum, W2; read-out: EC50
Express it in µM; write the number only.

Which EC50 reading was recorded for the compound COc1ccc(C2Nc3ccc(C(C)=O)cc3C3C=CCC32)cc1[N+](=O)[O-] (stereo unspecified) ?
2.57

What about O=C(Cn1c2ccccc2c(=O)c2ccccc21)Nc1ccc(Cl)cc1C(=O)c1ccccc1 ?
0.925

What about CCN(CC)CCCC(C)N=c1[nH]c(C=Cc2ccccc2OC)nc2cc(Cl)ccc12 (stereo unspecified) ?
0.16

What about C[C@@H]1C[C@@H](C)C(=O)[C@@H](C(O)CC2CC(=O)NC(=O)C2)C1 (stereo partly specified) ?
0.366

What about O=S(=O)(NCCCCNc1ccnc2cc(Cl)ccc12)c1ccc(F)cc1 ?
0.713

What about CCOC(=O)c1c(C)n(-c2ccccc2)c2ccc(OC(=O)c3ccccc3NC(=O)C(C)C)cc12 ?
1.99

---
Which EC50 reading was recorded for the compound COc1ccc(C2CC(=O)C3=C(C2)NC(C)=C(C(=O)OC(C)C)C3c2cccc(Br)c2)cc1OC (stereo unspecified) ?
0.0416

What about O=C(Nc1ccc(-n2cccn2)cc1)C1CCN(CC=Cc2ccccc2)CC1 ?
0.344

What about CC(C(=O)NCCCN)N(Cc1ccccc1)S(C)(=O)=O (stereo unspecified) ?
0.0162

What about O=C(c1ccc2ccccc2c1)N1CCc2ccccc21 ?
4.57

What about O=[N+]([O-])c1cccc(C(Nc2nccs2)c2ccc3cccnc3c2O)c1 (stereo unspecified) ?
0.198

What about Cc1nc(NC(=N)N)nc2ccccc12 ?
0.858

What about COc1ccc(S(=O)(=O)N=C2C=C(Nc3ccccc3)C(=O)c3ccccc32)cc1 ?
0.122

What about O=C(CCC1CCCC1)NC1CCC(Nc2ccnc3cc(Cl)ccc23)CC1 (stereo unspecified) ?
0.875

What about COc1cc2nc(NCc3ccccn3)n3nc(-c4ccccc4)nc3c2cc1OC ?
1.91

What about Clc1ccccc1-c1nc([P+](c2ccccc2)(c2ccccc2)c2ccccc2)c(N2CCOCC2)o1 ?
0.238

What about O=[N+]([O-])c1cc(C(F)(F)F)cc([N+](=O)[O-])c1Sc1cccc2cccnc12 ?
1.12

What about O=C(NCCCCNc1ccnc2cc(Cl)ccc12)c1ccc([N+](=O)[O-])cc1 ?
0.565

What about O=C(Cn1c(-c2ccccc2)c[n+]2ccsc12)c1ccccc1 ?
1.22

What about O=C(Nc1ccc(F)c(F)c1)c1cc2cc(C3(O)CCN(Cc4ccccc4F)CC3)ccc2o1 ?
1.85

What about COc1ccc(Cn2c(-c3ccc(Cl)cc3)c[n+]3ccccc23)cc1 ?
0.541

What about CC(=NO)c1ccc(NC2=C(N3CCCCC3)C(=O)c3ccccc3C2=O)cc1 ?
0.09

What about CN(C)c1cc[n+](CC(=O)Nc2ccc(Cl)cc2)cc1 ?
0.897

What about CCCCCCN(CCCCCC)CC(O)c1cc(-c2ccc(Cl)cc2)nc2c(C)cc(C)cc12 (stereo unspecified) ?
5.94

----------
Test system: Plasmodium falciparum
Assay: NOVARTIS: Inhibition of Plasmodium falciparum 3D7 (drug-susceptible) proliferation in erythrocyte-based infection assay
Assay type: functional, organism-based
Conditions: Plasmodium falciparum, 3D7
Collected pEC50 values appear next to each entry.
Answer as the number alone; pEC50 is minus log10 of concentration in mol/L.

Which pEC50 reading was recorded for the compound CCOC(=O)c1cnc2ccccc2c1Nc1ccc(C(C)=O)cc1 ?
6.46

---
Which pEC50 reading was recorded for the compound CCCCCC1CCCc2c1[nH]c1cc(Cl)ccc1c2=O (configuration not stated) ?
6.32

What about CCN1c2ccc([N+](=O)[O-])cc2N(CC)C1(C)c1ccccc1 (configuration not stated) ?
6.69

What about CCCCOc1ccc(NC2=NC3(CCCC3)NC(N)=N2)cc1 ?
5.96

What about O=C1C(Nc2ccccc2)=C(N2CCCCC2)C(=O)c2ccccc21 ?
6.42

What about COC(=O)CC(NS(=O)(=O)c1ccc(OC)cc1)c1ccc2c(c1)OCO2 (configuration not stated) ?
5.84

What about CC1(C)CC(N=c2cc(-c3ccccc3)oc3ccc(Cl)cc23)CC(C)(C)N1 ?
6.60

----------
Test system: Plasmodium falciparum
Assay: NOVARTIS: Inhibition of Plasmodium falciparum 3D7 (drug-susceptible) proliferation in erythrocyte-based infection assay
Type: functional, organism-based
Settings: Plasmodium falciparum, 3D7
MEASURED_QUANTITY: EC50 (nM)
Express it in nM; write the number only.

Completed entries (count: 3):
Which EC50 reading was recorded for the molecule O=c1c2c3c(sc2ncn1CCCc1ccccc1)CC(N1CCC(N2CCCCC2)CC1)CC3 (centres undefined) ?
386

What about Cc1cc2c(cc1C)N(C(=O)c1ccccc1)C(C)(C)c1ssc(=S)c1-2 ?
600

What about CN(C)c1nnc(/C(C#N)=C/c2cc(C(=O)c3cccc(Cl)c3)cn2C)o1 ?
936

Consider now this further molecule.
Which EC50 reading was recorded for the molecule CCOC(=O)c1cn(CC)c2cc(N3CCCCC3)c(F)cc2c1=O ?
166

----------
Assay: NOVARTIS: Cytotoxicity against human hepatocellular carcinoma cell line (Huh7)
Assay type: toxicity, cell-based, Huh-7
Conditions: Huh7 cells (hepatocellular carcinoma cell line)
Collected CC50 values appear next to each entry.

Which CC50 reading was recorded for the compound Brc1ccc(C=NNc2nc3ccccc3[nH]2)cc1 ?
55.8 µM

Consider now this further compound.
Which CC50 reading was recorded for the compound Cc1ccn2c(NC(C)(C)CC(C)(C)C)c(-c3ccccc3OC(=O)Cc3ccccc3)nc2c1 ?
> 10 µM

----------
Test system: Huh-7
Assay: NOVARTIS: Cytotoxicity against human hepatocellular carcinoma cell line (Huh7)
Assay type: toxicity, cell-based
Details: huh-7, read-out: CC50
MEASURED_QUANTITY: CC50

Completed entries (count: 5):
Entry CCN1/C(=C/c2cccc[n+]2C)Sc2ccc(OC)cc21 , system Huh-7: what CC50 was measured?
> 100 µM

What about C/C(C=NNC(=O)c1ccco1)=C\c1ccccc1 ?
> 100 µM

What about CC[n+]1c(/C=C2\Sc3cc(NC(C)=O)ccc3N2C)ccc2ccccc21 ?
> 100 µM

What about Cc1ccc(N=C2S/C(=C\c3c(Cl)cccc3Cl)C(=O)N2c2ccc(C)c(C)c2)cc1C ?
> 100 µM

What about CN1/C(=C/c2cccc[n+]2C)Sc2ccccc21 ?
> 100 µM

Consider now this further compound.
Entry Cc1[nH]c2ccccc2c1/C=C/c1cc[n+](C)cc1 , system Huh-7: what CC50 was measured?
> 10 µM

----------
Test system: Plasmodium falciparum
Assay: NOVARTIS: Inhibition of Plasmodium falciparum W2 (drug-resistant) proliferation in erythrocyte-based infection assay
Assay type: functional, organism-based
Settings: Plasmodium falciparum, W2; read-out: EC50
MEASURED_QUANTITY: pEC50
Answer as the number alone; pEC50 is minus log10 of concentration in mol/L.

Completed entries (count: 5):
Which pEC50 reading was recorded for the compound Cc1c2ccccc2c(-c2ccccc2)c2ccccc12 ?
6.20

What about CCCCNc1c2c(c(C#N)c3nc4ccccc4n13)CCC2 ?
6.44

What about O=C(NCCCN1CCOCC1)c1c[nH]c2ccc(S(=O)(=O)N3CCc4ccccc43)cc2c1=O ?
5.96

What about Cc1ccc(CN2CCc3nc(N4CCCCC4)sc3C2)s1 ?
7.98

What about CCN(Cc1ccccc1)Cc1c(O)ccc2oc(C)c(C(=O)Nc3ccc(C)cc3C)c12 ?
5.68

---
Which pEC50 reading was recorded for the compound C=CCc1cc([N+](=O)[O-])cc2c1OC1(C=C2)N(c2ccccc2)c2ccccc2C1(C)C (stereo not given) ?
6.05

----------
Test system: Plasmodium falciparum
Assay: NOVARTIS: Inhibition of Plasmodium falciparum W2 (drug-resistant) proliferation in erythrocyte-based infection assay
Assay type: functional, organism-based
Settings: Plasmodium falciparum, W2; read-out: EC50
Output Criterion met for records whose EC50 is lower than 400 nM, Criterion not met for records at or above 400 nM.

Example entries and their recorded answers appear below.
Would you kindly verify if EC50 of COc1cc2nc(Nc3cccc(F)c3)nc(N)c2cc1OC is strictly less than 400 nM?
Criterion met

What about Cc1c(Cl)cccc1NCC(=O)NN=C1CCCC1 ?
Criterion not met

What about Oc1ccc(-c2ccc3c(c2)OCO3)cc1CNC1CCN(Cc2ccccc2)CC1 ?
Criterion met

What about CCOc1ccc(N2C(=O)NC(=O)/C(=C\c3cn(C(C)=O)c4ccccc34)C2=O)cc1 ?
Criterion not met

What about Fc1ccc(-c2c[n+](Cc3ccc(Cl)cc3Cl)c3n2CCC3)cc1 ?
Criterion not met

---
Would you kindly verify if EC50 of CO[C@H](C(=O)[C@@H](O)[C@@H](C)O)[C@@H]1Cc2cc3cc(O[C@H]4C[C@@H](O[C@@H]5C[C@@H](O)[C@@H](O)[C@@H](C)O5)[C@@H](O)[C@H](C)O4)c(C)c(O)c3c(O)c2C(=O)[C@H]1O[C@H]1C[C@@H](O[C@H]2C[C@@H](O[C@H]3C[C@](C)(O)[C@@H](O)[C@H](C)O3)[C@H](O)[C@@H](C)O2)[C@H](O)[C@H](C)O1 is strictly less than 400 nM?
Criterion met
